molecular target: insulin receptor subtype A (human), P06213; experiment: cell-based or functional assay
Bridges are numbered along the chain shown (N, C = ends). Primed or numbered codes have the meaning given here. Where no end group is shown, it is not given here. [ ]: non-standard residue; d: D form. PEG4′ = non-peptide PEG4 spacer in the linking moiety; PEG8″ = non-peptide PEG8 spacer in the linking moiety
# cutoff 1% applies to % Insulin Activity (in vitro; assay not stated); >= gives y, < gives n

Given the entry MIU-68: B0, B22-PEG10K di-PEGylated B^1(H5,Y16,L17, K22)25-C^1(K8)-A^1(N18,21) (ligand, disulfide 18-56, 42-47, 6-43) {PEG 10 kDa}-GPEHLCGAELVDALYLVCGDK(PEG 10 kDa)GFYGYGSSSRKAPQTGIVDECCFRSCDLRRLENYCN , answer whether its % Insulin Activity (in vitro; assay not stated) meets or surpasses 1%.
n

Given the entry MIU-35: B^1(H5, H10, Y16, L17)25-C^1-A^1 (H8, N18, N21) (ligand) GPEHLCGAHLVDALYLVCGDRGFYGYGSSSRRAPQTGIVDECCHRSCDLRRLENYCN , answer whether its % Insulin Activity (in vitro; assay not stated) meets or surpasses 1%.
y

Given the entry MIU-57: B1-PEG20K B^1(H5,Y16,L17)25-C^1-A^1(N18,21), P05019 49-110 (ligand, disulfide 18-56, 42-47, 6-43) {PEG 20 kDa}-GPEHLCGAELVDALYLVCGDRGFYGYGSSSRRAPQTGIVDECCFRSCDLRRLENYCN , answer whether its % Insulin Activity (in vitro; assay not stated) meets or surpasses 1%.
y

Given the entry GPEHLCGAELVDALYLVCGDRGFY[PEG8″]K(PEG 20 kDa)[PEG4′]GIVDECCFRSCDLRRLENYCN (ligand, disulfide 18-47, 33-38, 6-34) [MIU-56: C8-PEG20K B^1(H5, Y16, L17)25-PEG8-K-PEG4-A^1(N18, N21)] , answer whether its % Insulin Activity (in vitro; assay not stated) meets or surpasses 1%.
y

Where do these numbers come from? They come from patent US20150299285A1.
